Values compiled from paper PMC2248166.

Molecular target: HLA B*0801 (Homo sapiens, UniProt P01889, A93T/A95T/D138N/E176V/E187T/K202T/Q94N/R180D/S35A/V36M/Y33D/Y91F)
Assay: biochemical
Where a SMILES comes first, the peptide text is derived from it.
Metric name: IC50 (nM)
Report the figure in nM without appending any unit label.

Inquiry: Need IC50 of CSCC[C@H](NC(=O)[C@H](Cc1ccccc1)NC(=O)[C@@H](N)CC(C)C)C(=O)N[C@@H](CO)C(=O)N[C@@H](Cc1c[nH]cn1)C(=O)N[C@H](C(=O)N[C@@H](CCCCN)C(=O)N[C@@H](CO)C(=O)N[C@H](C(=O)O)C(C)C)C(C)C [3102.0716] (H-LFMSHVKSV-OH) , thanks.
Reply text: 3.1

Inquiry: Again, but for CSCC[C@H](NC(=O)[C@@H](NC(=O)[C@@H](N)CCCCN)[C@@H](C)O)C(=O)N[C@@H](C)C(=O)N[C@H](C(=O)N[C@H](C(=O)N[C@@H](Cc1ccc(O)cc1)C(=O)N[C@@H](CCC(=O)O)C(=O)N[C@@H](CC(C)C)C(=O)O)[C@@H](C)O)C(C)C [3102.0293] (H-KTMAVTYEL-OH)
Reply text: 19

Inquiry: Again, but for CSCC[C@H](NC(=O)[C@H](C)NC(=O)[C@@H](NC(=O)[C@@H](N)C(C)C)C(C)C)C(=O)N[C@@H](CCCNC(=N)N)C(=O)N[C@@H](Cc1c[nH]cn1)C(=O)N[C@@H](CC(C)C)C(=O)N[C@@H](CO)C(=O)N[C@@H](CC(C)C)C(=O)O [3102.0557] (H-VVAMRHLSL-OH)
Reply text: 0.98

Inquiry: Again, but for CC[C@H](C)[C@H](NC(=O)[C@@H](NC(=O)[C@H](Cc1ccccc1)NC(=O)[C@H](CCCCN)NC(=O)[C@H](CCC(N)=O)NC(=O)[C@H](CCSC)NC(=O)[C@H](CC(=O)O)NC(=O)[C@@H](N)CO)[C@@H](C)O)C(=O)N[C@@H](CC(C)C)C(=O)O [3102.0699] (H-SDMQKFTIL-OH)
Reply text: 41

Inquiry: Again, but for CC[C@H](C)[C@H](NC(=O)[C@@H](N)CO)C(=O)N[C@@H](CC(N)=O)C(=O)N[C@H](C(=O)N[C@@H](CCCCN)C(=O)N[C@@H](Cc1c[nH]cn1)C(=O)N[C@H](C(=O)N[C@@H](CO)C(=O)N[C@H](C(=O)O)C(C)C)[C@@H](C)O)C(C)C [3102.0630] (H-SINVKHTSV-OH)
Reply text: 13
